Item-by-item account of kon
# assayed.system: T1, human GFRα3 expressed with a C-terminal mFc tag (human)
# T1 construct: also called hGFRα3-mFc
# T1 chain: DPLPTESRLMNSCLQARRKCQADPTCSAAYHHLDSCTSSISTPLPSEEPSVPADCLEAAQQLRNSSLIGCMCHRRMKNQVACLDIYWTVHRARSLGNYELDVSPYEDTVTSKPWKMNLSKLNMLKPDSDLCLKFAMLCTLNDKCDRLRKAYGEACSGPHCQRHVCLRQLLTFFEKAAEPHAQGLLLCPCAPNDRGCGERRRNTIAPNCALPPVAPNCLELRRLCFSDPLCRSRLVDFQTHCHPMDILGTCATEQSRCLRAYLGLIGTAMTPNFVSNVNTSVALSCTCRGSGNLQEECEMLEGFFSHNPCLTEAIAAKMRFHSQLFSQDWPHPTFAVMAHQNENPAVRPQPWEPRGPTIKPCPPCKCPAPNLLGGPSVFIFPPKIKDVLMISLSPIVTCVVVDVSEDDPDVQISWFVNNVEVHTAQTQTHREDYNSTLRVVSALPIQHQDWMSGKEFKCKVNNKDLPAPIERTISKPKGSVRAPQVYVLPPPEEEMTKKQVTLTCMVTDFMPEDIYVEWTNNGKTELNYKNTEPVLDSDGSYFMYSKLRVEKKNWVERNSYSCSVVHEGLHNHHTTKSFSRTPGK
# test.method.notes: SPR, Ab captured, 37C
The figure you give is taken to be in M⁻¹ s⁻¹; do not add the unit.

Task: Dear colleague, please send me the reported kon for H4H2357S (antibody, human IgG4, V domains shown, human IgG4 Fc (H4H)) VH: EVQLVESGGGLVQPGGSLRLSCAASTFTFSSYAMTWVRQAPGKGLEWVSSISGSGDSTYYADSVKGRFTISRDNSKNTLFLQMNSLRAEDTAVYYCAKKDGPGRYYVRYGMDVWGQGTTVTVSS VL: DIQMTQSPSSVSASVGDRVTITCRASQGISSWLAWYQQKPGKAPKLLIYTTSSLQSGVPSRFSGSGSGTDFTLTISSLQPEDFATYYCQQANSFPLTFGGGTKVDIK when you can.
Output: 1.19e+06

Task: Dear colleague, please send me the reported kon for H4H2291S (antibody, human IgG4, V domains shown, human IgG4 Fc (H4H)) VH: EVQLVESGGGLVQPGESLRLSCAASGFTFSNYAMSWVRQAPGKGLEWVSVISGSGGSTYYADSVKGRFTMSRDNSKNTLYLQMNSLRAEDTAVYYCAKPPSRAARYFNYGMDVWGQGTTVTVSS VL: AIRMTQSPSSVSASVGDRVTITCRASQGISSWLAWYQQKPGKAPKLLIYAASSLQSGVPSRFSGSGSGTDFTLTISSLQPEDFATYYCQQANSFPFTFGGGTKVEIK when you can.
Output: 1.33e+06
